# run-description: Long-term stability in spiked pooled human plasma
# condition-parameters: validation standard MOV
measured-parameter: Long-term stability, 6 weeks, 4°C, without daylight Accuracy [%] (%)

compound	measured
CCN(CC)CCNC(=O)c1c(C)[nH]c(/C=C2\C(=O)Nc3ccc(F)cc32)c1C	109.9
COC(=O)c1ccc2c(c1)NC(=O)/C2=C(\Nc1ccc(N(C)C(=O)CN2CCN(C)CC2)cc1)c1ccccc1	94.4
Cc1c(C(=O)Nc2ccc(N3C[C@@H](C)O[C@@H](C)C3)nc2)cccc1-c1ccc(OC(F)(F)F)cc1	106.1
COc1cc2nccc(Oc3ccc(NC(=O)Nc4cc(C)on4)c(Cl)c3)c2cc1OC	107.6
O=C(Nc1cnn2ccc(N3CCC[C@@H]3c3cc(F)ccc3F)nc12)N1CC[C@H](O)C1	105.2
COc1cc2ncnc(Nc3ccc(F)c(Cl)c3)c2cc1NC(=O)/C=C/CN1CCCCC1	79.1
CCc1cc2c(cc1N1CCC(N3CCOCC3)CC1)C(C)(C)c1[nH]c3cc(C#N)ccc3c1C2=O	92.7
NC(=O)c1cccc2cn(-c3ccc([C@@H]4CCCNC4)cc3)nc12	104.5
CC(C)(C)c1nc(-c2cccc(NS(=O)(=O)c3c(F)cccc3F)c2F)c(-c2ccnc(N)n2)s1	107.2
CNC(=O)c1ccc(N2C(=S)N(c3ccc(C#N)c(C(F)(F)F)c3)C(=O)C2(C)C)cc1F [Enzalutamide]	105.1
COc1cc2c(Nc3ccc(Br)cc3F)ncnc2cc1OCC1CCN(C)CC1	100.6
N#CC[C@H](C1CCCC1)n1cc(-c2ncnc3[nH]ccc23)cn1	97.6
CCC1=C[C@@H]2CN(C1)Cc1c([nH]c3ccccc13)[C@@](C(=O)OC)(c1cc3c(cc1OC)N(C)[C@H]1[C@@](O)(C(=O)OC)[C@H](OC(C)=O)[C@]4(CC)C=CCN5CC[C@]31[C@@H]54)C2	73.1
CNC(=O)c1cc(Oc2ccc(NC(=O)Nc3ccc(Cl)c(C(F)(F)F)c3)cc2)ccn1	106.5
CNC(=O)c1cc(Oc2ccc(NC(=O)Nc3ccc(Cl)c(C(F)(F)F)c3)c(F)c2)ccn1	101.0

Ref: paper PMC8699473
